# assayed.target: Peroxisome proliferator-activated receptor gamma (Homo sapiens)
# test.name: ATG_PPARg_TRANS: Attagene TRANS-FACTORIAL HepG2 Assay for human Peroxisome Proliferator-activated Receptor-gamma (PPARg) (AID 2283007)
Results filed as inconclusive are left out. The source made the active and inactive calls. How the source made its calls: active means hit-call score of the fitted dose curve at least 0.9, where 1 is the maximum; inconclusive means response in the unintended direction; inactive means score below 0.9. Peptide text beside a SMILES is read from it.
Pick one: 1 for active, -1 for inactive

q: Which result was noted for this molecule in the test: O=C(O)CCCC(=O)O
a: -1

q: Quick one: Cc1ccc([N+](=O)[O-])cc1N
a: -1

q: Request: O=C(C=Cc1ccccc1)OCCc1ccccc1
a: 1

q: Another molecule to look at: CCCCCCC=O
a: 1

q: Repeat for the following molecule: OCCCc1ccccc1
a: -1

q: Do the same for COC(=O)CC(C)CCC=C(C)C (stereo not given) please
a: -1

q: How about Nc1ccc(C(=O)OCCCOC(=O)c2ccc(N)cc2)cc1 ?
a: 1

q: Query CCCCCCO next
a: -1

q: Can you handle CCOC(=O)CC(=O)c1ccccc1 next?
a: -1

q: Request: O=C(O)c1cc(O)c2ccccc2c1O
a: 1

q: Moving on to CC1C(C)(C)C2=C(C(=O)CCC2)C1(C)C (stereo not given)
a: -1

q: [Cl][Eu]([Cl])[Cl] ?
a: -1

q: Would you mind doing CC(=O)OCc1ccccc1 as well?
a: -1

q: Note, next up: CCCCCCCOC(=O)c1ccc(O)cc1
a: -1

q: Please give the result for COC(=O)[C@H](Cc1ccccc1)NC(=O)[C@@H](N)CC(=O)O (H-Asp-Phe-OMe) too.
a: -1

Origin of the recorded values: PubChem BioAssay (EPA / NIEHS)
